Where do these numbers come from? They come from patent US20160362464A1.

# experimentalTarget: T1, His-Gαi3 (GDP-loaded) (rat, UniProt P08753 1-354)
# T1 construct: also called recombinant His-Gαi3; not shown: His tag
# T1 sequence (P08753 whole entry): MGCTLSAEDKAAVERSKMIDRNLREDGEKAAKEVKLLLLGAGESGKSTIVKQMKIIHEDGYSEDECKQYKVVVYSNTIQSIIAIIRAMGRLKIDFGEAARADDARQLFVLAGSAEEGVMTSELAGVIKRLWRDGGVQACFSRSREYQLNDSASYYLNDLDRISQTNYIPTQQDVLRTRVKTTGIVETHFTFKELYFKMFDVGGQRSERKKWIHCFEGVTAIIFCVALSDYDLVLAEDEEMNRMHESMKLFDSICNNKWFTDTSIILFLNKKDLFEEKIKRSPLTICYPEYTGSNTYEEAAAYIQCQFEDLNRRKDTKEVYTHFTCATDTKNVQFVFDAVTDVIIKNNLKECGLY
# experimentSummary: GST pulldown with 0.01-3 µM His-Gαi3, band intensities fitted to a one-site binding curve (FIG. 1F)
measurementKind: Kd

[[record]]
binder = "GST-GIV (aa 1671-1755) (other, UniProt Q3V6T2 1671-1755, looked up, range 1671-1755; also called GST-GIV CT 1671-1755 aa; not shown: glutathione S-transferase tag) IKTGSPGSEVVTLQQFLEESNKLTSVQIKSSSQENLLDEVMKSLSVSSDFLGKDKPVSCGLARSVSGKTPGDFYDRRTTKPEFLR"
measurementkind = "Kd"
observedvalue = "240 nM"

